tested-target: glucagon receptor (GCGR) (human, UniProt P47871 26-477)
Sequence (P47871 26-477): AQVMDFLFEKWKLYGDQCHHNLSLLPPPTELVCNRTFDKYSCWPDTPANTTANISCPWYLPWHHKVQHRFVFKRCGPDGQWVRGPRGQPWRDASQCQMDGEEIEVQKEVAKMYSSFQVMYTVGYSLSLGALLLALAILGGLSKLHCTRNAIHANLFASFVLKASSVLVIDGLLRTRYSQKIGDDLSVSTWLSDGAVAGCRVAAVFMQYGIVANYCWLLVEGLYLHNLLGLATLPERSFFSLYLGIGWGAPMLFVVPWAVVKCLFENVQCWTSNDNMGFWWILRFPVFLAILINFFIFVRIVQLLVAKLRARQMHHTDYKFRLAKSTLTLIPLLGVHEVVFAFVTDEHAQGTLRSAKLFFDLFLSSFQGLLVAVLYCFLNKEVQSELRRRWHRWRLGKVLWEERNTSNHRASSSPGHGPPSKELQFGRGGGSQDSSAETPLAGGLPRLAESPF
experiment: cell-based or functional assay
Starred links: 1 amine or outer side, 2 acyl side, 3 side chain; linkers in the order of their positions; H or OH if unused. Non-standard residues stand in square brackets, D forms with d. Groups on a side chain read outwards from the residue. Primed or numbered codes have the meaning given here. No end group written: not given here. *: point of attachment. γGlu = O=C(O)[C@H](CCC(=O)[*:2])N[*:1]; Stearoyl = CCCCCCCCCCCCCCCCCC(=O)*; αMeF = C[C@](N)(Cc1ccccc1)C(=O)O; αMeK = C[C@](N)(CCCCN)C(=O)O; Lauroyl = CCCCCCCCCCCC(=O)*; αMeS = C[C@](N)(CO)C(=O)O; PEG2′ = not defined here; Aib = CC(C)(N)C(=O)O
readout-label: cAMP Primary assay EC50 Gluc-R (nM)

1. H[Aib]EGS[αMeF]TSDV[αMeS]S[αMeF]LEGEAAK([PEG2′-PEG2′-PEG2′-Lauroyl])E[αMeF]IA[αMeF]VV[αMeK]GG-NH2 [SEQ ID NO 136]    26
2. H[Aib]EGS[αMeF]TSDV[αMeS]S[αMeF]LEGEAA[αMeK]E[αMeF]IK([PEG2′-PEG2′-γGlu-Stearoyl])[αMeF]VV[αMeK]GG-NH2 [SEQ ID NO 105]    25
3. H[Aib]EGS[αMeF]TSDV[αMeS]S[αMeF]LEGK([PEG2′-PEG2′-γGlu-Stearoyl])AA[αMeK]E[αMeF]IA[αMeF]VV[αMeK]GG-NH2 [SEQ ID NO 112]    25
4. H[Aib]EGS[αMeF]TSDV[αMeS]S[αMeF]LEGEAA[αMeK]K([PEG2′-PEG2′-γGlu-Stearoyl])[αMeF]IA[αMeF]VV[αMeK]GG-NH2 [SEQ ID NO 108]    25
